Experimental system: Neuronal acetylcholine receptor; alpha4/beta2 (Rattus norvegicus, UniProt P09483+P12390)
Sequence (P12390 whole entry, one chain of several): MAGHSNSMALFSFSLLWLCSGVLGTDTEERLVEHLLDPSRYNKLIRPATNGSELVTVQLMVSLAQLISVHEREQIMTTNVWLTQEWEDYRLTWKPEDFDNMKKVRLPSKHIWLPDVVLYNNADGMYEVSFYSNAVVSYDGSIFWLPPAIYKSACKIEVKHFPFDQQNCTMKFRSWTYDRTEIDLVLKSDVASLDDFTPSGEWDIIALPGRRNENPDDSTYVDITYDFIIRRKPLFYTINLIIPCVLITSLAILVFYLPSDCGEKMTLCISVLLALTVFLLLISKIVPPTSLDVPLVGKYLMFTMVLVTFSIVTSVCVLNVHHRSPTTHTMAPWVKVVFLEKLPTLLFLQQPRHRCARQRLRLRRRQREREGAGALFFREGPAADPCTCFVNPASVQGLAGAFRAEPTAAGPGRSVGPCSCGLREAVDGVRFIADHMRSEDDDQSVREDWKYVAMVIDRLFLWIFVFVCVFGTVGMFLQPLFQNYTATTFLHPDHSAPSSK
Test description: [3H](+/-)-epibatidine binding to Nicotinic acetylcholine receptor alpha4-beta2 from rat membranes
Assay endpoint: Ki (nM)
Answer with a number only, understood to be in nM.

Lookup: For the molecule CCN1C2CCC1C(c1ccc(Cl)nc1)C2 (racemic) , what Ki is on record?
Found: 13.6

----------
Field: EC50. Provide a value for each of the compounds that follow.
Experimental system: Neuronal acetylcholine receptor; alpha4/beta2 (Rattus norvegicus, UniProt P09483+P12390)
Test description: Functional potency measured as stimulation at rat Nicotinic acetylcholine receptor alpha4-beta2 expressed in Xenopus oocytes
Answer with a number only, understood to be in µM.

Lookup: For the compound Nc1ccc(C2CC3CCC2N3)cn1 (centres undefined) , what EC50 is on record?
Found: 7.6

Lookup: For the compound c1cncc(C2CC3CCC2N3)c1 (centres undefined) [DESCHLOROEPIBATIDINE] , what EC50 is on record?
Found: 3.63

Lookup: For the compound Fc1ccc(C2CC3CCC2N3)cn1 (centres undefined) , what EC50 is on record?
Found: 0.254

Lookup: For the compound Brc1ccc(C2CC3CCC2N3)cn1 (centres undefined) , what EC50 is on record?
Found: 0.094

----------
Experimental system: Neuronal acetylcholine receptor; alpha4/beta4 (Rattus norvegicus, UniProt P09483+P12392)
Sequence (P09483 whole entry): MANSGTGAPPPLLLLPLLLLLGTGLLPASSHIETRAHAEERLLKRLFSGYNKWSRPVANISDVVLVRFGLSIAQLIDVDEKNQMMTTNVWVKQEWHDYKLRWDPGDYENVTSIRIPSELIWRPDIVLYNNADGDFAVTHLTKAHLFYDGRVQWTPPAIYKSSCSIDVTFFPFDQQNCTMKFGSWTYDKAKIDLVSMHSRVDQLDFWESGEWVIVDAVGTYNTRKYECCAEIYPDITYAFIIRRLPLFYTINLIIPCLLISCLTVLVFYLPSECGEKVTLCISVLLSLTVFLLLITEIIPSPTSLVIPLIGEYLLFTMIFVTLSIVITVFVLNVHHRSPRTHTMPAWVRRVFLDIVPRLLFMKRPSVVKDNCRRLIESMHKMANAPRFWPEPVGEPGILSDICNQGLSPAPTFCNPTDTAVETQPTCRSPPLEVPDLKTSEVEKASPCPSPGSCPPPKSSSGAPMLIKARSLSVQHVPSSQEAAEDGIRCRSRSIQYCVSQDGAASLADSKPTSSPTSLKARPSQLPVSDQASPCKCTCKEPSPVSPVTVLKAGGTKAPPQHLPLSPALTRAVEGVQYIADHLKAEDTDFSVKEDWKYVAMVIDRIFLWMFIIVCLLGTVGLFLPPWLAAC
Sequence (P12392 whole entry): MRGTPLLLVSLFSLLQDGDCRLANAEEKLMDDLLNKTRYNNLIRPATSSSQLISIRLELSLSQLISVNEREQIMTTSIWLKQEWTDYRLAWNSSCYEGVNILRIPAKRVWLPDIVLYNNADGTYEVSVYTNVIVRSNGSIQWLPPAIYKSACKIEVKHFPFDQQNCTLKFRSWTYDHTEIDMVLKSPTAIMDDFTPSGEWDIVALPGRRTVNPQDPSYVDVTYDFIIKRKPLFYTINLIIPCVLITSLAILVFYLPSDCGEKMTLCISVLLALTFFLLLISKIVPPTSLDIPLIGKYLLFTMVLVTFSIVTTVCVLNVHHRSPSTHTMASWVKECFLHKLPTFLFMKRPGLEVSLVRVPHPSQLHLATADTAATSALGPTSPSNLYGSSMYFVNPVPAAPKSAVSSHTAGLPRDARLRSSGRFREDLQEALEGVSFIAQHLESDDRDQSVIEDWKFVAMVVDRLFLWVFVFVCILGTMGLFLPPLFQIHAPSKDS
Test description: Functional potency measured as stimulation at rat Nicotinic acetylcholine receptor alpha4-beta4 expressed in Xenopus oocytes
Assay endpoint: EC50 (nM)
Answer with a number only, understood to be in nM.

Lookup: For the molecule c1cncc(C2CC3CCC2N3)c1 (centres undefined) [DESCHLOROEPIBATIDINE] , what EC50 is on record?
Found: 982

Lookup: For the molecule Nc1ccc(C2CC3CCC2N3)cn1 (centres undefined) , what EC50 is on record?
Found: 1840

Lookup: For the molecule Fc1ccc(C2CC3CCC2N3)cn1 (centres undefined) , what EC50 is on record?
Found: 239

Lookup: For the molecule Brc1ccc(C2CC3CCC2N3)cn1 (centres undefined) , what EC50 is on record?
Found: 20

----------
Field: EC50. Provide a value for each of the molecules that follow.
Experimental system: Neuronal acetylcholine receptor; alpha3/beta4 (Rattus norvegicus, UniProt P04757+P12392)
Sequence (P04757 whole entry, one chain of several): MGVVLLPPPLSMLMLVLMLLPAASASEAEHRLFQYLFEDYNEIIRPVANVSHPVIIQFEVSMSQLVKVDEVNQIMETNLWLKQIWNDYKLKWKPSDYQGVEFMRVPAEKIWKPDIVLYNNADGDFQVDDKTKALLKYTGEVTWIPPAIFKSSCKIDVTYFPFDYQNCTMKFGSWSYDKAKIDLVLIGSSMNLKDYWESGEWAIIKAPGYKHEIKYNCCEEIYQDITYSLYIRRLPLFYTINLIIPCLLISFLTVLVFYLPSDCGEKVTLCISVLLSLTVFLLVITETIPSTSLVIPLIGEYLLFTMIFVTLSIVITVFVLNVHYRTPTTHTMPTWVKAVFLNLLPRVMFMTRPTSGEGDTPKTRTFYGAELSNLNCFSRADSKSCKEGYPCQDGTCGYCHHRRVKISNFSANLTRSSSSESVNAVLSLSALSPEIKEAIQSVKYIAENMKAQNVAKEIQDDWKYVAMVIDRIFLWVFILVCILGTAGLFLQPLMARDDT
Test description: Functional potency measured as stimulation at rat Nicotinic acetylcholine receptor alpha3-beta4 expressed in Xenopus oocytes
Answer with a number only, understood to be in nM.

Lookup: # get_value(readout= EC50, system= Neuronal acetylcholine receptor; alpha3/beta4 (Rattus norvegicus, UniProt P04757+P12392)) for Fc1ccc(C2CC3CCC2N3)cn1 (centres undefined)
Found: 319

Lookup: # get_value(readout= EC50, system= Neuronal acetylcholine receptor; alpha3/beta4 (Rattus norvegicus, UniProt P04757+P12392)) for c1cncc(C2CC3CCC2N3)c1 (centres undefined) [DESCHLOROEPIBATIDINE]
Found: 702

Lookup: # get_value(readout= EC50, system= Neuronal acetylcholine receptor; alpha3/beta4 (Rattus norvegicus, UniProt P04757+P12392)) for Nc1ccc(C2CC3CCC2N3)cn1 (centres undefined)
Found: 3240

Lookup: # get_value(readout= EC50, system= Neuronal acetylcholine receptor; alpha3/beta4 (Rattus norvegicus, UniProt P04757+P12392)) for Brc1ccc(C2CC3CCC2N3)cn1 (centres undefined)
Found: 189

----------
Field: pKi. Provide a value for each of the compounds that follow.
Experimental system: Neuronal acetylcholine receptor subunit alpha-7 (Rattus norvegicus, UniProt Q05941)
Sequence (Q05941 whole entry): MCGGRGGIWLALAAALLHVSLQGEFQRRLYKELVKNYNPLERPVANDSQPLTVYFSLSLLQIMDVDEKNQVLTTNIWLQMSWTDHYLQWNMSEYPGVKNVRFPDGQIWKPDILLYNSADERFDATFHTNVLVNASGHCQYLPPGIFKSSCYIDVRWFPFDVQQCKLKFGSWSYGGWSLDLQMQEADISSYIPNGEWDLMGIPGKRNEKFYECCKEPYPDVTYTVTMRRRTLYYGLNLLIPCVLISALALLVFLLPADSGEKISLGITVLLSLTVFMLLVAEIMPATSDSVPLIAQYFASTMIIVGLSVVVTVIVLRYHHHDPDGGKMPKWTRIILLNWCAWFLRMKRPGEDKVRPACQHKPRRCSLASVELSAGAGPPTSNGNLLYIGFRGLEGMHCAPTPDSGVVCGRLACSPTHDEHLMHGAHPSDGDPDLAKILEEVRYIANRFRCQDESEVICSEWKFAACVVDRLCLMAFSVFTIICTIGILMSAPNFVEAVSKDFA
Test description: Inhibition of [125I]-iodo-MLA binding to Nicotinic acetylcholine receptor alpha-7 from rat brain membranes
Value format note: pKi is -log10 of concentration (mol/L); just state the number.

Lookup: For the compound [N-]=[N+]=Nc1cc(C2CC3CCC2N3)cnc1Cl (centres undefined) [AZIDOEPIBATIDINE] , what pKi is on record?
Found: 8.01

Lookup: For the compound Clc1cc(C2CC3CCC2N3)cnc1Cl (centres undefined) , what pKi is on record?
Found: 8.95

Lookup: For the compound Nc1cc(C2CC3CCC2N3)cnc1Cl (centres undefined) , what pKi is on record?
Found: 7.86

Lookup: For the compound Clc1ncc(C2CC3CCC2N3)cc1Br (centres undefined) , what pKi is on record?
Found: 6.82

----------
Experimental system: Neuronal acetylcholine receptor; alpha3/beta4 (Rattus norvegicus) (UniProt P04757+P12392)
Test description: Functional potency measured as maximum stimulation at rat Nicotinic acetylcholine receptor alpha3-beta4 expressed in Xenopus oocytes
Type: cell-based
Applied conditions: Oocyte
Assay endpoint: Max (%)
Answer with a number only, understood to be in %.

Lookup: For the compound Clc1ccc(C2CC3CCC2N3)cn1 (stereo unspecified) [EPIBATIDINE] , what Max is on record?
Found: 39

Lookup: For the compound c1cncc(C2CC3CCC2N3)c1 (stereo unspecified) [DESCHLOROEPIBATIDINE] , what Max is on record?
Found: 61

Lookup: For the compound "CC(=O)OCC[N+](C)(C)C" , what Max is on record?
Found: 100

Lookup: For the compound Fc1ccc(C2CC3CCC2N3)cn1 (stereo unspecified) , what Max is on record?
Found: 40

Lookup: For the compound Brc1ccc(C2CC3CCC2N3)cn1 (stereo unspecified) , what Max is on record?
Found: 82

Lookup: For the compound Nc1ccc(C2CC3CCC2N3)cn1 (stereo unspecified) , what Max is on record?
Found: 82

----------
Field: pKi. Provide a value for each of the compounds that follow.
Experimental system: Neuronal acetylcholine receptor; alpha4/beta2 (Rattus norvegicus, UniProt P09483+P12390)
Test description: Inhibition of [3H]nicotine binding to Nicotinic acetylcholine receptor alpha4-beta2 from rat membranes
Value format note: pKi is -log10 of concentration (mol/L); just state the number.

Lookup: For the compound "CN1[C@@H]2CC[C@H]1[C@H](c1ccc(Cl)nc1)C2" , what pKi is on record?
Found: 9.59

Lookup: For the compound "CN1[C@H]2CC[C@@H]1[C@@H](c1ccc(Cl)nc1)C2" , what pKi is on record?
Found: 9.96

Lookup: For the compound CCCN1C2CCC1C(c1ccc(Cl)nc1)C2 (single isomer, unassigned; (-)) , what pKi is on record?
Found: 7.97

Lookup: For the compound Cc1ccc(C2CC3CCC2N3)cn1 (centres undefined) , what pKi is on record?
Found: 9.89

----------
Field: Max. Provide a value for each of the molecules that follow.
Experimental system: Neuronal acetylcholine receptor; alpha4/beta4 (Rattus norvegicus) (UniProt P09483+P12392)
Test description: Functional potency measured as maximum stimulation at rat Nicotinic acetylcholine receptor alpha4-beta4 expressed in Xenopus oocytes
Format: cell-based
Applied conditions: Oocyte
Answer with a number only, understood to be in %.

Lookup: For the molecule Clc1ccc(C2CC3CCC2N3)cn1 (stereo unspecified) [EPIBATIDINE] , what Max is on record?
Found: 71

Lookup: For the molecule Nc1ccc(C2CC3CCC2N3)cn1 (stereo unspecified) , what Max is on record?
Found: 41

Lookup: For the molecule Fc1ccc(C2CC3CCC2N3)cn1 (stereo unspecified) , what Max is on record?
Found: 131

Lookup: For the molecule "CC(=O)OCC[N+](C)(C)C" , what Max is on record?
Found: 98

Lookup: For the molecule c1cncc(C2CC3CCC2N3)c1 (stereo unspecified) [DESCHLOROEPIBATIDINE] , what Max is on record?
Found: 147

Lookup: For the molecule Brc1ccc(C2CC3CCC2N3)cn1 (stereo unspecified) , what Max is on record?
Found: 102

----------
Experimental system: Neuronal acetylcholine receptor; alpha3/beta4 (Rattus norvegicus, UniProt P04757+P12392)
Test description: Binding affinity towards rat Nicotinic acetylcholine receptor alpha3-beta4 expressed in Xenopus oocytes using [3H]epibatidine as radioligand
Assay endpoint: pKi
Value format note: pKi is -log10 of concentration (mol/L); just state the number.

Lookup: # get_value(readout= pKi, system= Neuronal acetylcholine receptor; alpha3/beta4 (Rattus norvegicus, UniProt P04757+P12392)) for Brc1ccc(C2CC3CCC2N3)cn1 (centres undefined)
Found: 9.66

Lookup: # get_value(readout= pKi, system= Neuronal acetylcholine receptor; alpha3/beta4 (Rattus norvegicus, UniProt P04757+P12392)) for Nc1ccc(C2CC3CCC2N3)cn1 (centres undefined)
Found: 8.14

Lookup: # get_value(readout= pKi, system= Neuronal acetylcholine receptor; alpha3/beta4 (Rattus norvegicus, UniProt P04757+P12392)) for Fc1ccc(C2CC3CCC2N3)cn1 (centres undefined)
Found: 8.68

Lookup: # get_value(readout= pKi, system= Neuronal acetylcholine receptor; alpha3/beta4 (Rattus norvegicus, UniProt P04757+P12392)) for c1cncc(C2CC3CCC2N3)c1 (centres undefined) [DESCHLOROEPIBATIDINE]
Found: 7.96
